Entry source: PubChem BioAssay (NCI)

Test system: COLO 205 colon
protocol.notes: NCI tumour cell line growth inhibition, 48 h
Entries annotated with measured GI50

>  <compound>
O=C1/C(=C/c2ccccc2O)N=C(c2ccccc2)N1c1cc(C(F)(F)F)ccc1Cl

>  <GI50>
> 100 µM

$$$$
>  <compound>
COc1cc(/C=C/C(=O)O[C@H]2[C@H](O[C@@H]3O[C@@H](C)[C@H](O)[C@@H](O)[C@H]3O)[C@@H](O)[C@H](OCCc3ccc(O)c(O)c3)O[C@@H]2COC2OCC(O)(CO)C2O)ccc1O (stereo not given in full)

>  <GI50>
> 100 µM

$$$$
>  <compound>
COC1=C(OC)C(=O)C(CCCCCCCCCCO)=C(C)C1=O

>  <GI50>
19.6 µM

$$$$
>  <compound>
[Cl][Cu][Cl]

>  <GI50>
> 10 µM

$$$$
>  <compound>
CC(C)N(Cc1ccc(F)cc1)c1ccc(CO)c(Cl)c1

>  <GI50>
1.03 µM

$$$$

---

Entries annotated with measured TGI
System: SNB-75 CNS
protocol.notes: NCI tumour cell line growth inhibition, 48 h

>  <molecule>
COCCOCOC(C)(C)[C@H](CCO)O[Si](c1ccccc1)(c1ccccc1)C(C)(C)C

>  <TGI>
21.6 µM

$$$$
>  <molecule>
C[C@H]1CN(C2COC2)CCN1c1ccc(Nc2cc(-c3ccnc(N4CCn5c(cc6c5CC(C)(C)C6)C4=O)c3CO)cn(C)c2=O)nc1

>  <TGI>
> 100 µM

$$$$
>  <molecule>
CC1CCC2C(CN(CC3=C(C(F)(F)F)OC4OC5(C)CCC6C(C)CCC3C46OO5)CC3=C(C(F)(F)F)OC4OC5(C)CCC6C(C)CCC3C46OO5)=C(C(F)(F)F)OC3OC4(C)CCC1C32OO4 (centres undefined)

>  <TGI>
> 100 µM

$$$$
>  <molecule>
COc1ccc(C(=O)Oc2c(C#N)sc3c2c(=O)n(-c2ccccc2)c(=S)n3-c2ccccc2)cc1

>  <TGI>
> 100 µM

$$$$

---

System: NCI-H522 lung
protocol.notes: NCI tumour cell line growth inhibition, 48 h
Entries annotated with measured TGI
result.type: TGI

>  <compound>
COc1ccc(COc2cc3oc(=O)c4cc(C(C)O)ccc4c3cc2OC)cc1 (stereo unspecified)

>  <result.value>
> 95.3 µM

$$$$
>  <compound>
COc1ccc(C2CC(c3ccc(N(C)C)cc3)=NN2c2ccc(S(N)(=O)=O)cc2)cc1 (stereo unspecified)

>  <result.value>
6.69 µM

$$$$
>  <compound>
CCCCCCCCCCCCC(O)C(=O)O (stereo unspecified)

>  <result.value>
> 100 µM

$$$$
>  <compound>
CC(=O)CC(=O)CCC(=O)Nc1cccc(C(F)(F)F)c1

>  <result.value>
> 100 µM

$$$$
>  <compound>
c1cncc(CSc2ncnc3nc[nH]c23)c1

>  <result.value>
> 100 µM

$$$$
>  <compound>
CSc1ccc2c(cc1=O)C(NC(=O)c1ccc(C#N)cc1)CCc1cc(O)c(O)c(O)c1-2 (stereo unspecified)

>  <result.value>
40.3 µM

$$$$

---

Tested on: SW-620 colon
protocol.notes: NCI tumour cell line growth inhibition, 48 h; in the data active = GI50 below about 0.43 µM; inactive = the rest
Classes used: t for active, f for inactive

>  <structure>
[Cl][Cu][Cl]

>  <tested.target>
SW-620 colon

>  <group.label>
f

$$$$
>  <structure>
C/C(=N\NC(=S)N1CCN(c2ccccn2)CC1)c1ncccn1

>  <tested.target>
SW-620 colon

>  <group.label>
t

$$$$
>  <structure>
O=C1C(Nc2cccc(O)c2)=C(Sc2ccccc2)C(=O)N1Cc1ccccc1

>  <tested.target>
SW-620 colon

>  <group.label>
f

$$$$
>  <structure>
C[C@H]1CN(C2COC2)CCN1c1ccc(Nc2cc(-c3ccnc(N4CCn5c(cc6c5CC(C)(C)C6)C4=O)c3CO)cn(C)c2=O)nc1

>  <tested.target>
SW-620 colon

>  <group.label>
f

$$$$
>  <structure>
O=S(=O)(NCCCNc1nccc(-c2c(-c3ccc(F)cc3)nc3sccn23)n1)c1ccc(F)cc1

>  <tested.target>
SW-620 colon

>  <group.label>
f

$$$$
